Below: a set of entries, each annotated with reported CC50.
# ASSAY METHOD TEXT: Cytotoxicity against human MT4 cells assessed as cell viability by MTT assay
# Format: cell-based
REPORTED PROPERTY: CC50

[[record]]
molecule = "COc1ccc(CNC(=O)c2[nH]c3ccc(Cl)cc3c2S(=O)(=O)c2cc(C)cc(C)c2)cc1"
observed = "39.9 µM"

[[record]]
molecule = "Cc1cc(C)cc(S(=O)(=O)c2c(C(=O)NCc3ccc(F)cc3)[nH]c3ccc(Cl)cc23)c1"
observed = "> 53.1 µM"

[[record]]
molecule = "Cc1ccnc2c1NC(=O)c1cccnc1N2C1CC1"
observed = "> 18.8 µM"

[[record]]
molecule = "Cc1cc(C)cc(S(=O)(=O)c2c(C(=O)NCCc3ccccc3Cl)[nH]c3ccc(Cl)cc23)c1"
observed = "45 µM"

[[record]]
molecule = "Cc1cc(C)cc(CNC(=O)c2[nH]c3ccc(Cl)cc3c2S(=O)(=O)c2cc(C)cc(C)c2)c1"
observed = "> 52 µM"

[[record]]
molecule = "Cc1cc(C)cc(S(=O)(=O)c2c(C(=O)NCc3ccccc3F)[nH]c3ccc(Cl)cc23)c1"
observed = "> 53.1 µM"

[[record]]
molecule = "Cc1ccc(CCNC(=O)c2[nH]c3ccc(Cl)cc3c2S(=O)(=O)c2cc(C)cc(C)c2)cc1"
observed = "> 52 µM"

[[record]]
molecule = "Cc1cc(C)cc(S(=O)(=O)c2c(C(=O)NC(C)c3ccccc3)[nH]c3ccc(Cl)cc23)c1 (racemic)"
observed = "> 53.5 µM"

[[record]]
molecule = "Cc1cc(C)cc(S(=O)(=O)c2c(C(=O)NCc3ccc(N(C)C)cc3)[nH]c3ccc(Cl)cc23)c1"
observed = "40.7 µM"

